Known pKd of a selection of molecules
# STUDY_TARGET: T1, Human NRP2 (aa23-855) (Homo sapiens, UniProt O60462)
# T1 construct: Human NRP2 (aa23-855)
# T1 sequence (O60462 23-855 isoform O60462-3): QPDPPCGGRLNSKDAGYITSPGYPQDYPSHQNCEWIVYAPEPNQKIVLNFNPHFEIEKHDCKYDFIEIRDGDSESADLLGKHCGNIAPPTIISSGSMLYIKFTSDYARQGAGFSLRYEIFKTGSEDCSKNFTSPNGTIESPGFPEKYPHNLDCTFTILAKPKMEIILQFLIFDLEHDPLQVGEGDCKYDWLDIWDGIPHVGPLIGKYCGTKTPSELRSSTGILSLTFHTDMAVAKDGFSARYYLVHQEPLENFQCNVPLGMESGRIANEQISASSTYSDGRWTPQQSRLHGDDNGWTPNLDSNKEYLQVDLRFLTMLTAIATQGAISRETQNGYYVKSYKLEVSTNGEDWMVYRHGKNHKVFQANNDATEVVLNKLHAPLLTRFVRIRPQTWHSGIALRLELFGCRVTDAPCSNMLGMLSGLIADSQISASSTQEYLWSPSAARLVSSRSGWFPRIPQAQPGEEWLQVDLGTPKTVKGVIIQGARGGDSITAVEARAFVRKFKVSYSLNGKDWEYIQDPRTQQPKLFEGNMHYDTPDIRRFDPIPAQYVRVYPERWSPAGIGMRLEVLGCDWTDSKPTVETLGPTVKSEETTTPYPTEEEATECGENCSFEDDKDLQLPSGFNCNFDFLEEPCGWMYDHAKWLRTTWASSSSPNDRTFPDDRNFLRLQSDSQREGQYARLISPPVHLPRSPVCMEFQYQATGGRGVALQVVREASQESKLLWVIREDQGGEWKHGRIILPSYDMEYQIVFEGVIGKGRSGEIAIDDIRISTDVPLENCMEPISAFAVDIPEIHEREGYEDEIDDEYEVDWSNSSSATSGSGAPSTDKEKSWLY
# PROCEDURE_TEXT: SPR binding affinity of anti-NRP2 antibodies to human NRP2 antigen
# CONDITIONS: KD = kd/ka, Langmuir (1:1) model
Scale: pKd equals -log10([C]), with [C] in mol/L.

aNRP2-10v5: humanized, affinity matured anti-NRP2 antibody, target domain b1; VH SEQ ID NO: 47, VL SEQ ID NO: 48 (antibody, V domains shown, Variable heavy chain region; Light chain variable region) VH: EVQLVQSGAEVKKPGATVKISCKVSGFNIKDYYIHWVQQAPGKGLEWMGRIDVEDDETKYAPKFQGRVTITADTSTDTAYMELSSLRSEDTAVYYCATPIYGSREAWFAYWGQGTLVTVSS VL: DIQMTQSPSSLSASVGDRVTITCTASSSVSSSYLHWYQQKPGKAPKLLIYRTSNLASGVPSRFSGSGSGTDFTLTISSLQPEDFATYYCHQYYRSPPTFGGGTKVEIK ... 9.70

Now look at this entry.
Notebook: aNRP2-1v3: humanized, affinity matured anti-NRP2 antibody, target domain b2; VH SEQ ID NO: 43, VL SEQ ID NO: 44 (antibody, V domains shown, Variable heavy chain region; Light chain variable region) VH: QVQLVQSGAEVKKPGASVKVSCKASGYTFTSYWMHWVRQAPGQGLEWMGAIYPGNSDTSYNQQFKGRVTMTRDTSTSTVYMELSSLRSEDTAVYYCARRGGGYFDYWGQGTLVTVSS VL: DIQLTQSPSFLSASVGDRVTITCKASQNVGAAVAWYQQKPGKAPKLLIYSASNRYTGVPSRFSGSGSGTEFTLTISSLQPEDFATYYCQQYSSYPLLTFGGGTKVEIK , pKd read as 7.77
